// note: IC50 values for Lysine-specific demethylase 5A (Homo sapiens, UniProt P29375) were reported in different studies

Answered examples (5):
Molecule	IC50
CCC(C)Oc1nc(O)c2ccncc2n1 (stereo not shown)	1000 to 10000 nM
CC(C)C(c1ccccc1)n1cnc(-c2cc(C(=O)O)ccn2)c1 (stereo not shown)	≤ 100 nM
Cn1cnc(-c2cc(C(=O)O)ccn2)c1-c1cccc(Cl)c1	≤ 100 nM
O=C(c1ccccc1)N1CCC[C@H](n2cc(Oc3nc(O)c4ccncc4n3)cn2)C1	≤ 100 nM
O=C(c1cc(F)cc(Oc2nc(O)c3ccncc3n2)c1)N1CCOCC1	≤ 100 nM

The recorded IC50 for O=C(O)c1ccncc1NC[C@H]1CCCc2ccccc21 is ≤ 100 nM

Reported IC50 for CC(O)Cn1nc(Nc2cnccc2C(=O)O)c2cc(F)ccc21 (stereo not shown) was < 100 nM

Record CC(C)NC(=O)NC1CCN(C(=O)c2cc(C(C)C)n[nH]2)C1 (stereo not shown) , field IC50: 0.083 nM

The molecule listed as O=C(O)c1ccnc(-n2nccc2-c2ccc(O)cc2)c1 has a reported IC50 of 100 to 1000 nM

The recorded IC50 for entry COc1ccc(Oc2nc(O)c3ccncc3n2)cc1F equals ≤ 100 nM
